Measured values drawn from patent US20220177587A1 for this set.

- assay system: huPD-L1 (Homo sapiens, UniProt Q9NZQ7)
- Sequence (Q9NZQ7 19-290): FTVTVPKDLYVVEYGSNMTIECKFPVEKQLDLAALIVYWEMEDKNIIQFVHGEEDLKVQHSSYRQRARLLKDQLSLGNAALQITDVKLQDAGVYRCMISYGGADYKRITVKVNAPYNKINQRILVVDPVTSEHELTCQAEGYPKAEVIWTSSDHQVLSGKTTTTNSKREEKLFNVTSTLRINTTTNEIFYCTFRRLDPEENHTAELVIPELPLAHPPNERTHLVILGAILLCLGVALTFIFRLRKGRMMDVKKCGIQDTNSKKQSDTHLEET
- assay explanation: Flow binding to CHO cells stably expressing PD-L1
- Set-up: huCTLA4 and huPD-L1, full-length mammalian surface expression constructs were generated; expressed in transfected cells; host or cells: CHO cells, lentiviral transduction, sorted to >98% purity
- settings: Table E11; MFI at 33.3 nM
attribute measured: Ratio of PDL1:CD28
Answers are plain numbers.

Exam item: Fill in the blank: the reported Ratio of PDL1:CD28 of E24D/E35D/M47L/V68M/E95V/L97Q (protein, UniProt P33681 35-288, looked up, variant E24D E35D M47L V68M E95V L97Q) T-lymphocyte activation …: VIHVTKEVKEVATLSCGHNVSVEDLAQTRIYWQKDKKMVLTMMSGDLNIWPEYKNRTIFDITNNLSIMILALRPSDEGTYECVVLKYEKDAFKRVHQAEVTLSVKADFPTPSISDFEIPTSNIRRIICSTSGGFPEPHLSWLENGEELNAINTTVSQDPETELYAVSSKLDFNMTTNHSFMCLIKYGHLRVNQTFNWNTTKQEHFPDNLLPSWAITLISVNGIFVICCLTYCFAPRCRERRRNERLRRESVRPV is ____.
Marked response: 1268.6
